meta.source: patent US20120165319A1

The following compounds have recorded pKi on CPP32 (Homo sapiens, UniProt P42574).
Sequence (P42574 29-175 limits assumed): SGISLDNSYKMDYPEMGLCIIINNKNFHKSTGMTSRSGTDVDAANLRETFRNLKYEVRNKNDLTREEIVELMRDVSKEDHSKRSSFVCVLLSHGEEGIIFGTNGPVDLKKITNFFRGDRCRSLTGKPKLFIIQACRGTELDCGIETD
Sequence (P42574 176-277 limits assumed): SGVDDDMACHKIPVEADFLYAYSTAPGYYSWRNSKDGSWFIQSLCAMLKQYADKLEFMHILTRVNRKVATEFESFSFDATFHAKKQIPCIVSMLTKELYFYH
pKi: −log10 of the molar value.
VALUE_KIND: pKi

• COc1cccc2nc(C(=O)[C@H](CC(=O)O)NC(=O)[C@@H]3CCCN4C(=O)CC[C@H](NC(=O)CCc5ccccc5)C(=O)N34)oc12 [Compound 135a] = < 6.00
• O=C[C@H](CC(=O)O)NC(=O)[C@@H]1CCCN2C(=O)CC[C@H](NC(=O)c3ccccc3)C(=O)N12 [Compound 214e] = < 6.00
• O=C(O)C[C@H](NC(=O)[C@@H]1CCCN2C(=O)CC[C@H](NC(=O)CCc3ccccc3)C(=O)N12)C(=O)CSCc1ccccc1Cl [Compound 125b] = < 6.00

###

system: IL-1β, human peripheral blood mononuclear cells (PBMC); assay: PBMC cell assay: IL-1β assay with human PBMC or enriched adherent mononuclear cells, LPS-stimulated; format: cell-based; settings: Homo sapiens, PBMC, * = values obtained upon reassay
pIC50: −log10 of the molar value.
Form field: pIC50 (one value per entry).
VALUE_KIND: pIC50

• CCn1nc(C)cc1C(=O)N[C@H]1CCC(=O)N2CCC[C@@H](C(=O)N[C@H](C=O)CC(=O)O)N2C1=O = 5.66
• CCC(=O)Nc1ccc(C(=O)N[C@H]2CCC(=O)N3CCC[C@@H](C(=O)N[C@H](C=O)CC(=O)O)N3C2=O)cc1 = 6.05
• CC(=O)N1C[C@H](NC(=O)c2cccc3ccccc23)C(=O)N(CC(=O)N[C@H](C=O)CC(=O)O)c2ccccc21 = 5.89
• O=C[C@H](CC(=O)O)NC(=O)[C@@H]1CCCN2C(=O)CC[C@H](NC(=O)c3ccc(Cl)c(Cl)c3)C(=O)N12 = 6.00
• O=C(O)C[C@H](NC(=O)[C@@H]1CCCN2C(=O)CC[C@H](NC(=O)c3ccccc3)C(=O)N12)C(=O)CSCc1ccccc1Cl [Compound 226e] = 5.96
• O=C(O)C[C@H](NC(=O)[C@@H]1CCCN2C(=O)CC[C@H](NC(=O)CCc3ccccc3)C(=O)N12)C(=O)c1ncc(-c2c(Cl)cccc2Cl)o1 = 5.77
• COc1ccc(C(=O)N[C@H]2CCC(=O)N3CCC[C@@H](C(=O)N[C@H](C=O)CC(=O)O)N3C2=O)cc1Cl = 6.13
• CN(C)c1ccc(C(=O)N[C@H]2CCC(=O)N3CCC[C@@H](C(=O)N[C@H](C=O)CC(=O)O)N3C2=O)cc1 = 6.12
• COc1cccc2oc(C(=O)[C@H](CC(=O)O)NC(=O)[C@@H]3CCCN4C(=O)CC[C@H](NC(=O)CCc5ccccc5)C(=O)N34)nc12 [Compound 135b] = 5.80
• O=C[C@H](CC(=O)O)NC(=O)[C@@H]1CCCN2C(=O)CC[C@H](NC(=O)c3cc4ccccc4[nH]3)C(=O)N12 = 6.16
• O=C[C@H](CC(=O)O)NC(=O)[C@@H]1CCCN2C(=O)CC[C@H](NC(=O)c3cc4ccsc4s3)C(=O)N12 = 6.05
• CC(=O)N1C[C@H](NC(=O)c2ccc3cc(O)ccc3c2)C(=O)N(CC(=O)N[C@H](C=O)CC(=O)O)c2ccccc21 = 5.89

###

tested on: IL-1β, human whole blood; experiment: Whole blood assay for IL-1β production; format: cell-based; conditions: Table 18; read-out: Whole human blood IC5O
pIC50: −log10 of the molar value.
VALUE_KIND: pIC50

* CS(=O)(=O)N[C@H]1CCC(=O)N2CCC[C@@H](C(=O)N[C@@H](CC(=O)O)C(=O)COC(=O)c3sccc3Cl)N2C1=O [505 e] | 6.00
* CS(=O)(=O)N[C@H]1CCC(=O)N2CCC[C@@H](C(=O)N[C@@H](CC(=O)O)C(=O)COC(=O)c3cccc4ccccc34)N2C1=O [Compound 286] | 5.80

###

Target: ICE (Homo sapiens, UniProt P29466)
Sequence (P29466 120-297 limits assumed): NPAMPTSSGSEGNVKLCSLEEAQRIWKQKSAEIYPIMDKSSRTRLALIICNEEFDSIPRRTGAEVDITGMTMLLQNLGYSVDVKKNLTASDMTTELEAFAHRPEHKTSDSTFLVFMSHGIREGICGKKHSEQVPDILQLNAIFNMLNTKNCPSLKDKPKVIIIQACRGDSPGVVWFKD
Sequence (P29466 317-404 limits assumed): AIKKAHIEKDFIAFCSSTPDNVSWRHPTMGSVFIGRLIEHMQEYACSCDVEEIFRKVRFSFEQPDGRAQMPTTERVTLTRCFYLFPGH
Assay: Inhibition of IGIF processing by ICE inhibitors, measured in ICE inhibition assays (Example 27, Table 22)
Format: biochemical
Conditions: read-out: UV-Visible Ki
VALUE_KIND: Ki

- O=C[C@H](CC(=O)O)NC(=O)[C@@H]1CCCN2C(=O)CC[C@H](NC(=O)c3nccc4ccccc34)C(=O)N12: 1.3 nM

###

# maps each entry to its pKi
molecular target: ICE (Homo sapiens); experiment: Enzyme assay with UV-visible substrate (visible ICE assay, Succinyl-Tyr-Val-Ala-Asp-pNitroanilide); assay type: biochemical; details: Table 17
pKi: −log10 of the molar value.
VALUE_KIND: pKi

- O=C1C[C@H](NC(=O)[C@@H]2CCCN3C(=O)CC[C@H](NC(=O)c4cccc5ccccc45)C(=O)N23)C(OCc2ccccc2)O1 (stereo partly shown) [Compound 213v]: 9.30
- O=C[C@H](CC(=O)O)NC(=O)CN1C(=O)[C@@H](NC(=O)c2cccc3ccccc23)CN(C=O)c2ccccc21 [Compound 653]: 7.52
- COc1ccccc1C(=O)C(=O)N[C@H]1CN(C(=O)CO)c2ccccc2N(CC(=O)N[C@H](C=O)CC(=O)O)C1=O [Compound 921]: 8.07
- COc1cccc(OC)c1C(=O)C(=O)N[C@H]1CN(C(=O)CO)c2ccccc2N(CC(=O)N[C@H](C=O)CC(=O)O)C1=O [Compound 678]: 8.30
- O=C[C@H](CC(=O)O)NC(=O)[C@@H]1CCCN2C(=O)CCN(NC(=O)C(=O)c3cccs3)C(=O)N12 [Compound 1107]: 7.19
- O=C[C@H](CC(=O)O)NC(=O)[C@@H]1CCCN2C(=O)CCN(NC(=O)C(=O)c3ccc4c(c3)OCO4)C(=O)N12 [Compound 1109]: 7.10
- COc1ccccc1NC(=O)NN1CCC(=O)N2CCC[C@@H](C(=O)N[C@H](C=O)CC(=O)O)N2C1=O [Compound 265d]: 6.30
- O=C[C@H](CC(=O)O)NC(=O)CN1C(=O)[C@@H](NC(=O)c2ccccc2)CN(C(=O)CO)c2ccccc21 [Compound 668]: 8.05
- O=C1C[C@H](NC(=O)[C@@H]2CCCN3C(=O)CC[C@H](NC(=O)c4ccccc4)C(=O)N23)[C@H](OCc2ccccc2)O1 [Compound 2100o]: 6.17
- CNCC(=O)N1C[C@H](NC(=O)c2cccc3ccccc23)C(=O)N(CC(=O)N[C@H](C=O)CC(=O)O)c2ccccc21 [Compound 650]: 6.26
- CC(=O)N1C[C@H](NC(=O)c2cc(Cl)c(O)c(Cl)c2)C(=O)N(CC(=O)N[C@H](C=O)CC(=O)O)c2ccccc21 [Compound 656]: 9.22
- CC(=O)N1C[C@H](NC(=O)/C=C/c2ccc(Cl)c(Cl)c2)C(=O)N(CC(=O)N[C@H](C=O)CC(=O)O)c2ccccc21 [Compound 700]: 6.56
- COc1cccc(OC)c1C(=O)C(=O)N[C@H]1CCC(=O)N2CCC[C@@H](C(=O)N[C@H](C=O)CC(=O)O)N2C1=O [Compound 501]: 8.60

###

Target: ICE (Homo sapiens, UniProt P29466)
Sequence (P29466 120-297 limits assumed): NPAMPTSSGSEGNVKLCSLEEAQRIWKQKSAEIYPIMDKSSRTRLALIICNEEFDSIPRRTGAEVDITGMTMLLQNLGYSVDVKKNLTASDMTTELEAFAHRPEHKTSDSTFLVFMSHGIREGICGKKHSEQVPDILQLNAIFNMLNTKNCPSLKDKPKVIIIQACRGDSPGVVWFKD
Sequence (P29466 317-404 limits assumed): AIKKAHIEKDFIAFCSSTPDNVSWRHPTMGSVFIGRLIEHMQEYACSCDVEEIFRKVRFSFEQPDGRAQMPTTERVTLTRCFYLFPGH
Assay: Enzyme assay with UV-visible substrate (visible ICE assay, Succinyl-Tyr-Val-Ala-Asp-pNitroanilide)
Assay type: biochemical
Conditions: Table 17
pKi: −log10 of the molar value.
Decide by pKi: equal to or exceeding 8 means yes, less means no.

* Cc1cc(C(=O)N[C@H]2CCC(=O)N3CCC[C@@H](C(=O)N[C@H](C=O)CC(=O)O)N3C2=O)cc(C)c1O [Compound 214w] | yes
* COc1cccc(NC(=O)NN2CCC(=O)N3CCC[C@@H](C(=O)N[C@H](C=O)CC(=O)O)N3C2=O)c1 [Compound 265c] | no
* CC(=O)Nc1ccc(C(=O)N[C@H]2CN(C(=O)CO)c3ccccc3N(CC(=O)N[C@H](C=O)CC(=O)O)C2=O)cc1Cl [Compound 914] | yes
* Cc1cc(C)c(C(=O)C(=O)NN2CCC(=O)N3CCC[C@@H](C(=O)N[C@H](C=O)CC(=O)O)N3C2=O)c(C)c1 [Compound 1117] | no
* O=C[C@H](CC(=O)O)NC(=O)CN1C(=O)[C@@H](NC(=O)c2cc(Cl)c(O)c(Cl)c2)CN(C(=O)CO)c2ccccc21 [Compound 662] | yes
* Nc1ccc(C(=O)N[C@H]2CN(C(=O)CO)c3ccccc3N(CC(=O)N[C@H](C=O)CC(=O)O)C2=O)cc1Cl [Compound 686] | yes
* O=C1C[C@H](NC(=O)[C@@H]2CCCN3C(=O)CC[C@H](NC(=O)c4ccccc4)C(=O)N23)C(OCc2ccccc2)O1 (single isomer, unassigned) [Compound 2100n] | no
* COc1cccc(OC)c1C(=O)C(=O)NN1CCC(=O)N2CCC[C@@H](C(=O)N[C@H](C=O)CC(=O)O)N2C1=O [Compound 1112] | yes
* CC(=O)N1C[C@H](NC(=O)c2cc(C)c(O)c(C)c2)C(=O)N(CC(=O)N[C@H](C=O)CC(=O)O)c2ccccc21 [Compound 671] | yes
* COc1c(Cl)cc(C(=O)N[C@H]2CCC(=O)N3CCC[C@@H](C(=O)N[C@H](C=O)CC(=O)O)N3C2=O)cc1Cl [Compound 214m] | yes
* COC(=O)N[C@H]1CCC(=O)N2CCC[C@@H](C(=O)N[C@@H](CC(=O)O)C(=O)CSc3ncccn3)N2C1=O [Compound 511c] | no
